Source: patent US20100120715A1

target: Class A ESBL CTXM-15 (Escherichia coli, UniProt Q9EXV5); test: β-lactamase enzyme inhibition (nitrocefin hydrolysis), CTXM-15; settings: purified enzyme; nitrocefin 100 μM, PBS pH 7.0; read-out: CTXM-15 IC50 Range
Sequence (Q9EXV5 entry or part of it): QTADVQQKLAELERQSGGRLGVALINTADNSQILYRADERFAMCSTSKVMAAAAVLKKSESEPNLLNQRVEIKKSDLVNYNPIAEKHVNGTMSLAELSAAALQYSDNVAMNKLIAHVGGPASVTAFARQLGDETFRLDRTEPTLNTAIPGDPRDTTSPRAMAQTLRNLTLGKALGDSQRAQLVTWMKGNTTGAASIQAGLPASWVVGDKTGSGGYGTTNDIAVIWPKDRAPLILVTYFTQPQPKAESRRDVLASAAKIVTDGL
The entries below come with measured IC50 values attached.

| compound | measuredQuantity | result |
| --- | --- | --- |
| Cn1nc(-c2ccccc2)cc1C(=O)N[C@@H](Cc1cccc(C(=O)O)c1O)B(O)O [Example 44] | IC50 | < 10 nM |

Look up and state reported IC50 for O=C(Cn1cccn1)N[C@@H](Cc1cccc(C(=O)O)c1O)B(O)O [Example 40]
10 to 100 nM

Please indicate IC50 recorded for Cc1ccccc1C(=O)N[C@@H](Cc1cccc(C(=O)O)c1O)B(O)O [Example 30]
< 10 nM

Specify IC50 for NC(=O)COc1cccc(CC(=O)N[C@@H](Cc2cccc(C(=O)O)c2O)B(O)O)c1 [Example 8] and stop.
< 10 nM
